- STUDY_SYSTEM: DLK (Homo sapiens)
- Construct: 10 nM DLK, catalytic domain, Carna Biosiences; purchased Carna Biosciences ('Carna Biosiences' [sic])
- Sequence (Q12852 125-366 limits assumed): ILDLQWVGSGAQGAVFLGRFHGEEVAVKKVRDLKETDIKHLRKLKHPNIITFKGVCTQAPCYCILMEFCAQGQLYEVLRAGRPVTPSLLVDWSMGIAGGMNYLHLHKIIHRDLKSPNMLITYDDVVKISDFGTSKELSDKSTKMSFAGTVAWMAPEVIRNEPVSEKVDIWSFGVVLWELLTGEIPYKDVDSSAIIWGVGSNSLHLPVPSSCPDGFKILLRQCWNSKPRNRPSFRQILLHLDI
- TEST_METHOD_NOTES: DLK biochemical assay (TR-FRET, MKK7 phosphorylation)
- RECORDED_CONDITIONS: DLK catalytic domain, MKK7 substrate, 60 μM ATP
PROPERTY_MEASURED: IC50

CC[C@H](C)NC(=O)c1cc(-c2cnn(C3CCN(C4COC4)CC3)c2)cn2nc(N)nc12 (single isomer, unassigned) [Example I-8] = 68 nM
CCC(c1ccc(OCC(F)(F)F)nc1)n1cc(-c2cc(C(=O)N[C@H]3CCOC3)n3nc(N)nc3c2)cn1 (single isomer, unassigned) [Example I-188] = 16 nM
CC[C@H](C)NC(=O)c1cc(-c2cnn([C@H](c3ccc(C(F)(F)F)nc3)C3CC3)c2)cc2nc(N)nn12 (single isomer, unassigned) [Example I-109] = 1.8 nM
CC[C@H](C)NC(=O)c1cc(-c2cnn(C(COC)c3ccccc3)c2)cn2nc(N)nc12 (mixture of isomers) [Example I-40] = 4.5 nM
CC[C@H](C)NC(=O)c1cc(-c2cnn(C(c3ccc(C(F)(F)F)nc3)C3CC3)c2)cc2nc(N)nn12 (single isomer, unassigned) [Example I-108] = 28 nM
C[C@@H](CF)NC(=O)c1cc(-c2cnn(C3CCOc4ccccc43)c2)cn2nc(N)nc12 (mixture of isomers) [Example I-143] = 33 nM

// sample CC[C@H](C)NC(=O)c1cc(-c2cnn(C(c3cncc(Cl)c3)C(C)C)c2)cn2nc(N)nc12 (single isomer, unassigned) [Example I-63] , its IC50 was 0.4 nM

// sample CC(CF)NC(=O)c1cc(-c2cnn(C(c3ccccc3)C(C)C)c2)cn2nc(N)nc12 (single isomer, unassigned) [Example I-139] , its IC50 was 1.7 nM

// sample CC(C)C(c1ccc(C(F)(F)F)nc1)n1cc(-c2cc(C(=O)N[C@H]3CCOC3)n3nc(N)nc3c2)cn1 (single isomer, unassigned) [Example I-182] , its IC50 was 0.3 nM

// sample CC[C@@H](c1ccc(F)cc1)n1cc(-c2cc(C(=O)NC(C)CF)n3nc(N)nc3c2)cn1 (mixture of isomers) [Example I-148] , its IC50 was 1.6 nM

// sample CC(C)C(c1ccc(F)cc1)n1cc(-c2cc(C(=O)N[C@@H](C)CO)c3nc(N)nn3c2)cn1 (single isomer, unassigned) [Example I-161] , its IC50 was 51 nM

// sample CC[C@H](C)NC(=O)c1cc(-c2cnn(C(c3ccc(C(F)F)nc3)C(C)C)c2)cn2nc(N)nc12 (single isomer, unassigned) [Example I-69] , its IC50 was 1 nM

// sample CC[C@H](C)NC(=O)c1cc(-c2cnn(C(c3ccccc3)C(C)(C)C)c2)cn2nc(N)nc12 (single isomer, unassigned) [Example I-36] , its IC50 was 25 nM

// sample CCC(c1ccc(OCC(F)(F)F)nc1)n1cc(-c2cc(C(=O)N[C@@H](C)CC)c3nc(N)nn3c2)cn1 (single isomer, unassigned) [Example I-86] , its IC50 was 100 nM

// sample CCC(c1ccc(OC(F)(F)F)nc1)n1cc(-c2cc(C(=O)NC(C)(C)CO)c3nc(N)nn3c2)cn1 (racemic) [Example I-169] , its IC50 was 26 nM

Origin of the recorded values: patent US20230086702A1
